Target: Cytochrome P450 3A4 (Homo sapiens, UniProt P08684)
Sequence (P08684 whole entry): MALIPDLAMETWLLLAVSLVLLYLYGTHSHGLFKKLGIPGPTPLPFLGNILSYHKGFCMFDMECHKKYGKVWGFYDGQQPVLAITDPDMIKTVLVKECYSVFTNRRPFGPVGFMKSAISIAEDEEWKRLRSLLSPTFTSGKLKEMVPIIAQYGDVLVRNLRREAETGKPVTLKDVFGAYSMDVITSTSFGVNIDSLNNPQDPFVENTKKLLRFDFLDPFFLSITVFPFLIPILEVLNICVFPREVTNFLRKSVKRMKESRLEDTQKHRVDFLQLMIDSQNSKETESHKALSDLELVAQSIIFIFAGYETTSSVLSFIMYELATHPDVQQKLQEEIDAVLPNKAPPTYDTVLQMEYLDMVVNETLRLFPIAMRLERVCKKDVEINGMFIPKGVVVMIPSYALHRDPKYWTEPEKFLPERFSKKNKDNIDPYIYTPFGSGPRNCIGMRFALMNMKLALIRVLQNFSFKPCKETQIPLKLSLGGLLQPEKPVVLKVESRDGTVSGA
pIC50: −log10 of the molar value.

| record_smiles | pIC50 |
| --- | --- |
| COc1ccc(S(=O)(=O)NC(=O)c2cc(Cl)cc(-c3nc4ccccc4[nH]3)c2)cc1 | 4.70 |

====

Test: Half life in ICR mouse at 100 mg/kg, po by HPLC-MS/MS analysis
Format: ADME, organism-based
Conditions: in vivo
experimental_readout: half-life

| record_smiles | experimental_readout | test_result |
| --- | --- | --- |
| COc1ccc(S(=O)(=O)NC(=O)c2cc(Cl)cc(-c3nc4ccccc4[nH]3)c2)cc1 | half-life | 1.29 h |

====

Test: AUC (0 to infinity) in ICR mouse at 100 mg/kg, po by HPLC-MS/MS analysis
Assay type: ADME, organism-based
Details: in vivo

| record_smiles | unit_of_measurement | AUC(0-inf) |
| --- | --- | --- |
| COc1ccc(S(=O)(=O)NC(=O)c2cc(Cl)cc(-c3nc4ccccc4[nH]3)c2)cc1 | ng·h/mL | 19500 |

====

# inhibition per entry
Species on record: Homo sapiens
Assay: Inhibition of Fructose-1,6-bisphosphatase (unknown origin) preincubated for 10 min followed by addition of NADP+, PGI,G6PDH at 10 uM measured after 40 min by absorption based analysis relative to control
Settings: time 50.0 min
experimental_readout: inhibition (%)

| record_smiles | unit_of_measurement | test_result |
| --- | --- | --- |
| O=S(=O)(Nc1ccccc1-c1nc2ccccc2n1-c1ccc(Cl)cc1)c1ccc(Cl)cc1 | % | 28.9 |
| O=S(=O)(Nc1cc(Cl)cc(-c2nc3ccccc3[nH]2)c1)c1ccc(Cl)cc1 | % | 5.4 |
| O=S(=O)(Nc1ccccc1-c1nc2ccccc2n1Cc1ccc(Cl)cc1)c1ccc(Cl)cc1 | % | 10.2 |
| CC(C)n1c(-c2cccc(C(=O)NS(=O)(=O)c3ccc(Cl)cc3)c2)nc2ccccc21 | % | 0 |
| COc1ccc(S(=O)(=O)NC(=O)c2cc(Cl)cc(-c3nc4ccccc4[nH]3)c2)cc1 | % | 81.8 |
| COc1ccc(S(=O)(=O)Nc2cc(Cl)cc(-c3nc4ccccc4[nH]3)c2)cc1 | % | 18.2 |
| COc1ccc(S(=O)(=O)Nc2cccc(-c3nc4ccccc4n3-c3ccc(NC(C)=O)cc3)c2)cc1 | % | 36.8 |
| COc1ccc(S(=O)(=O)NC(=O)c2cccc(-c3nc4ccccc4[nH]3)c2)cc1 | % | 20.8 |
| COc1ccc(S(=O)(=O)Nc2cccc(-c3nc4ccccc4[nH]3)c2)cc1 | % | 0 |
| CC(=O)Nc1ccc(-n2c(-c3ccccc3NS(=O)(=O)c3ccc(Cl)cc3)nc3ccccc32)cc1 | % | 25 |
| O=S(=O)(Nc1ccccc1-c1nc2ccccc2n1C1CCCCC1)c1ccc(Cl)cc1 | % | 39.8 |
| O=C(NS(=O)(=O)c1ccc(F)cc1)c1ccccc1N1CCN(Cc2nc3ccccc3n2C2CCCCC2)CC1 | % | 64.3 |
| O=C(NS(=O)(=O)c1ccc(F)cc1)c1cc(Cl)cc(-c2nc3ccccc3[nH]2)c1 | % | 96.3 |
| O=S(=O)(Nc1cccc(-c2nc3ccccc3n2-c2ccc(Cl)cc2)c1)c1ccc(Cl)cc1 | % | 63.5 |
| COc1ccc(S(=O)(=O)Nc2cccc(-c3nc4ccccc4n3Cc3ccc(Cl)cc3)c2)cc1 | % | 7.1 |
| O=S(=O)(Nc1cccc(-c2nc3ccccc3[nH]2)c1)c1ccc(Cl)cc1 | % | 0 |
| COc1ccc(S(=O)(=O)Nc2cccc(-c3nc4ccccc4n3C(C)C)c2)cc1 | % | 7.1 |

====

Experiment: AUC (0 to t) in ICR mouse at 5 mg/kg, iv by HPLC-MS/MS analysis
Type: ADME, organism-based
Settings: in vivo
experimental_readout: AUC(0-t)

| record_smiles | test_result |
| --- | --- |
| COc1ccc(S(=O)(=O)NC(=O)c2cc(Cl)cc(-c3nc4ccccc4[nH]3)c2)cc1 | 15900 ng·h/mL |

====

Species on record: Homo sapiens
Assay: Inhibition of Fructose-1,6-bisphosphatase (unknown origin) preincubated for 10 min followed by addition of NADP+, PGI,G6PDH at 10 uM measured after 40 min by absorption based analysis relative to control
Conditions: time 50.0 min

| molecule | inhibition (%) |
| --- | --- |
| O=C(NS(=O)(=O)c1ccc(Cl)cc1)c1cc(Cl)cc(-c2nc3ccccc3[nH]2)c1 | 88.3 |
| CC(C)n1c(-c2cccc(NS(=O)(=O)c3ccc(Cl)cc3)c2)nc2ccccc21 | 7.1 |
| Cn1c(-c2cccc(C(=O)NS(=O)(=O)c3ccc(Cl)cc3)c2)nc2ccccc21 | 4 |
| Nc1ncnc2c1ncn2[C@@H]1O[C@H](COP(=O)(O)O)[C@@H](O)[C@H]1O [ADENOSINE PHOSPHATE] | 81.3 |
| COc1ccc(S(=O)(=O)NC(=O)c2cccc(-c3nc4ccccc4n3C)c2)cc1 | 5.7 |
| COc1ccc(S(=O)(=O)Nc2ccccc2-c2nc3ccccc3n2-c2ccc(Cl)cc2)cc1 | 28.9 |
| COc1ccc(S(=O)(=O)Nc2cccc(-c3nc4ccccc4n3C)c2)cc1 | 5.7 |
| O=C(NS(=O)(=O)c1ccc(Cl)cc1)c1cccc(-c2nc3ccccc3[nH]2)c1 | 0 |
| COc1ccc(S(=O)(=O)NC(=O)c2cccc(-c3nc4ccccc4n3C(C)C)c2)cc1 | 0 |

====

Target: Cytochrome P450 2D6 (Homo sapiens)
Sequence (P10635 whole entry): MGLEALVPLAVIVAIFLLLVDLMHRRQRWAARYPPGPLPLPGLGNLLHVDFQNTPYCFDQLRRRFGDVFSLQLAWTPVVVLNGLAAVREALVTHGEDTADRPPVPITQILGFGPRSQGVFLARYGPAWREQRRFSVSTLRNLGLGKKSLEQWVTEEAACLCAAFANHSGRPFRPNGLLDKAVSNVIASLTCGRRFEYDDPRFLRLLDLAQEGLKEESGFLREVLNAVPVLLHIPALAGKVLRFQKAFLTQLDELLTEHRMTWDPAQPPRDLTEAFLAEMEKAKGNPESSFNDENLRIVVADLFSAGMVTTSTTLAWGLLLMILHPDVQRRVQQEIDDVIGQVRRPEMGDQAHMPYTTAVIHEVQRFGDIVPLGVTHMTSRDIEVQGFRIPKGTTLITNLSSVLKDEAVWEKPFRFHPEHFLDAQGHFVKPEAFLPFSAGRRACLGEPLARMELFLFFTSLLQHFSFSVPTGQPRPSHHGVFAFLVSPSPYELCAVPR
pIC50: −log10 of the molar value.

| record_smiles | assayed_target | pIC50 |
| --- | --- | --- |
| COc1ccc(S(=O)(=O)NC(=O)c2cc(Cl)cc(-c3nc4ccccc4[nH]3)c2)cc1 | Cytochrome P450 2D6 (Homo sapiens) | 4.43 |

====

Test: Tmax in ICR mouse at 100 mg/kg, po by HPLC-MS/MS analysis
Assay type: ADME, organism-based
Conditions: in vivo

| record_smiles | Tmax [min] |
| --- | --- |
| COc1ccc(S(=O)(=O)NC(=O)c2cc(Cl)cc(-c3nc4ccccc4[nH]3)c2)cc1 | 15 |

====

Experiment: Half life in ICR mouse at 5 mg/kg, iv by HPLC-MS/MS analysis
Assay type: ADME, organism-based
Conditions: in vivo

| record_smiles | unit_of_measurement | half-life |
| --- | --- | --- |
| COc1ccc(S(=O)(=O)NC(=O)c2cc(Cl)cc(-c3nc4ccccc4[nH]3)c2)cc1 | h | 1.79 |

====

# IC50 per entry
Assay: Inhibition of Fructose-1,6-bisphosphatase (unknown origin) preincubated for 10 min followed by addition of NADP+, PGI,G6PDH and measured after 40 min by absorption based analysis
Set-up: species or system Homo sapiens

| compound | unit_of_measurement | IC50 |
| --- | --- | --- |
| O=C(NS(=O)(=O)c1ccc(Cl)cc1)c1cc(Cl)cc(-c2nc3ccccc3[nH]2)c1 | nM | 1400 |
| COc1ccc(S(=O)(=O)Nc2cccc(-c3nc4ccccc4n3-c3ccc(Cl)cc3)c2)cc1 | nM | 5350 |
| O=S(=O)(Nc1cccc(-c2nc3ccccc3n2-c2ccc(Cl)cc2)c1)c1ccc(Cl)cc1 | nM | 8040 |
| Nc1ncnc2c1ncn2[C@@H]1O[C@H](COP(=O)(O)O)[C@@H](O)[C@H]1O [ADENOSINE PHOSPHATE] | nM | 3290 |
| O=C(NS(=O)(=O)c1ccc(F)cc1)c1cc(Cl)cc(-c2nc3ccccc3[nH]2)c1 | nM | 2160 |
| COc1ccc(S(=O)(=O)NC(=O)c2cc(Cl)cc(-c3nc4ccccc4[nH]3)c2)cc1 | nM | 2080 |

====

Experiment: MRT (0 to infinity) in ICR mouse at 100 mg/kg, po by HPLC-MS/MS analysis
Type: ADME, organism-based
Details: in vivo
experimental_readout: MRT inf (h)

| record_smiles | test_result |
| --- | --- |
| COc1ccc(S(=O)(=O)NC(=O)c2cc(Cl)cc(-c3nc4ccccc4[nH]3)c2)cc1 | 3 |

====

Assay: AUC (0 to t) in ICR mouse at 100 mg/kg, po by HPLC-MS/MS analysis
Type: ADME, organism-based
Settings: in vivo

| record_smiles | AUC(0-t) / ng·h/mL |
| --- | --- |
| COc1ccc(S(=O)(=O)NC(=O)c2cc(Cl)cc(-c3nc4ccccc4[nH]3)c2)cc1 | 19500 |

====

Assay: AUC (0 to infinity) in ICR mouse at 5 mg/kg, iv by HPLC-MS/MS analysis
Type: ADME, organism-based
Settings: in vivo

| record_smiles | unit_of_measurement | AUC(0-inf) |
| --- | --- | --- |
| COc1ccc(S(=O)(=O)NC(=O)c2cc(Cl)cc(-c3nc4ccccc4[nH]3)c2)cc1 | ng·h/mL | 15900 |
